# Test system: CAF#2 (primary prostate cancer-associated fibroblasts of iCAF-like type)
# Assay Explanation: drug sensitivity score (DSS2, normalised partial AUC of dose-response, 72 h CellTiter-Glo viability) (DSS (dimensionless)); higher = more sensitive (stronger growth inhibition / cytotoxicity); extreme values may be limits of the assay
Kindly state drug sensitivity score for each of the entries shown.
Answers are plain numbers.

- Molecule: "COc1cc(Nc2ncc(F)c(Nc3ccc4c(n3)N(COP(=O)(O)O)C(=O)C(C)(C)O4)n2)cc(OC)c1OC [Fostamatinib] (tested concentration range 0.2-2500 nM)"
  System Tested: "CAF#2"
  Measured Number: 8.4

Quick request: drug sensitivity score for each listed item, please.
1. NC(=S)N/N=C/c1ncccc1N [Triapine] (tested concentration range 1-10000 nM)
2. O=c1ncn2nc(Sc3ccc(F)cc3F)ccc2c1-c1c(Cl)cccc1Cl [Neflamapimod] (tested concentration range 1-10000 nM)

Marked response:
1. 3.3
2. 0

---

# Test system: CAF#7 (primary prostate cancer-associated fibroblasts of myCAF-like type)
# Assay Explanation: drug sensitivity score (DSS2, normalised partial AUC of dose-response, 72 h CellTiter-Glo viability) (DSS (dimensionless)); higher = more sensitive (stronger growth inhibition / cytotoxicity); extreme values may be limits of the assay
Kindly state drug sensitivity score for each of the entries shown.
Answers are plain numbers.

Quick request: drug sensitivity score for each listed item, please.
1. O=c1sn(-c2cccc3ccccc23)c(=O)n1Cc1ccccc1 [Tideglusib] (tested concentration range 0.3-3000 nM)
2. O=C(O)c1ccc2c(c1)nc(Nc1cccc(Cl)c1)c1ccncc12 [Silmitasertib] (tested concentration range 1-10000 nM)
3. CC(C)C[C@H](NC(=O)[C@H](Cc1ccccc1)NC(=O)c1cnccn1)B(O)O [Bortezomib] (tested concentration range 0.1-1000 nM)

Marked response:
[1.6, 1.5, 24.3]

Quick request: drug sensitivity score for each listed item, please.
1. CN(C)C(=O)c1ccc(S(=O)(=O)c2ccc(NC(=O)[C@@](C)(O)C(F)(F)F)c(Cl)c2)cc1 [AZD7545] (tested concentration range 1-10000 nM)
2. CCN(CC)CCNC(=O)c1c(C)[nH]c(/C=C2\C(=O)Nc3ccc(F)cc32)c1C [Sunitinib] (tested concentration range 0.1-1000 nM)
3. N#CC[C@H](C1CCCC1)n1cc(-c2ncnc3[nH]ccc23)cn1 [Ruxolitinib] (tested concentration range 1-10000 nM)

Marked response:
0
0
0

---

# Test system: CAF#7
# Assay Explanation: drug sensitivity score (DSS2, normalised partial AUC of dose-response, 72 h CellTiter-Glo viability) (DSS (dimensionless)); higher = more sensitive (stronger growth inhibition / cytotoxicity); extreme values may be limits of the assay
Kindly state drug sensitivity score for each of the entries shown.
Numbers only.

- Compound: "FC(F)(F)c1ccc(/C=C/c2nc(COc3ccc(CCCCn4ccnn4)cc3)co2)cc1 [Mubritinib] (tested concentration range 0.1-1000 nM)"
  Measurement Name: "drug sensitivity score"
  Measured Number: 0
- Compound: "CCCCCCCCc1ccc(CCC(N)(CO)CO)cc1 [Fingolimod] (tested concentration range 1-10000 nM)"
  Measurement Name: "drug sensitivity score"
  Measured Number: 6.3
- Compound: "CN1C(=O)N[C@H](Cc2c[nH]c3c(Cl)cccc23)C1=O [Necrostatin 2] (tested concentration range 1-10000 nM)"
  Measurement Name: "drug sensitivity score"
  Measured Number: 0
- Compound: "CC[C@H](C)C(=O)O[C@H]1C[C@H](O)C=C2C=C[C@H](C)[C@H](CC[C@@H](O)C[C@@H](O)CC(=O)O)[C@H]21 [Pravastatin] (tested concentration range 1-10000 nM)"
  Measurement Name: "drug sensitivity score"
  Measured Number: 0
- Compound: "Cc1nc(=O)c2cc(CN(C)c3ccc(C(=O)N[C@@H](CCC(=O)O)C(=O)O)s3)ccc2[nH]1 [Raltitrexed] (tested concentration range 0.1-1000 nM)"
  Measurement Name: "drug sensitivity score"
  Measured Number: 0

Let us examine a further case.
Exam item: I have this compound here, CCNC(=O)C[C@@H]1N=C(c2ccc(Cl)cc2)c2cc(OC)ccc2-n2c(C)nnc21 [Molibresib] (tested concentration range 1-10000 nM) , and I need its recorded drug sensitivity score.
Marked response: 2.7
